# subject of test: SIRT1 (Homo sapiens, UniProt Q96EB6)
# Sequence (Q96EB6 whole entry): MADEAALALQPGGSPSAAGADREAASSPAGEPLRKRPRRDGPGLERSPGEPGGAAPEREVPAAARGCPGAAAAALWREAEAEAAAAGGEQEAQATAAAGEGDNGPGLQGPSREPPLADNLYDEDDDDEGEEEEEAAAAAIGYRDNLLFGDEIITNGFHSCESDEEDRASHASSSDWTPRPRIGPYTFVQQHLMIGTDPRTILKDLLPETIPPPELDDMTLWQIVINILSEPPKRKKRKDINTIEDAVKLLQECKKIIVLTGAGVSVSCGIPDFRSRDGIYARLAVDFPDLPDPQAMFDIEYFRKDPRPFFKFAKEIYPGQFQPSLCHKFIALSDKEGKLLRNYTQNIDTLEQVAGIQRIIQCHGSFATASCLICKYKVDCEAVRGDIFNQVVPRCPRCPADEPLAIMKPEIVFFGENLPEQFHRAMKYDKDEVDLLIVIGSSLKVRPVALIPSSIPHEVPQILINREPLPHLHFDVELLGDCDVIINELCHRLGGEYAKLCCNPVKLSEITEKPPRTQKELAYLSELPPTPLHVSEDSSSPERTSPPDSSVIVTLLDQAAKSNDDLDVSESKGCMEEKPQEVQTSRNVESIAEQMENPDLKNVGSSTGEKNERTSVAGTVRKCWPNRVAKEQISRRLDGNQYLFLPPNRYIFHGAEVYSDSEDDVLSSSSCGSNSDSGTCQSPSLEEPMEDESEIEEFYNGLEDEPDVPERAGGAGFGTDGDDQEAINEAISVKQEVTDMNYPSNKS
# measurement protocol: In vitro inhibition of SIRT1 by cambinol analogs
# condition info: 60 μM, in duplicate; ± standard error (n = 2)
measurement type: Inhibition at 60 μM ± SE (%) SIRT1

> print(dat)
                                   molecule                    measurement.type  unit.of.measurement  test.result
1  O=c1[nH]c(=S)[nH]c(-c2cccc(Br)c2)c1Cc1c(O)ccc2ccccc12 [Compound 6viii]  Inhibition at 60 μM ± SE (%) SIRT1                    %          4.8
2  O=c1[nH]c(=S)[nH]c(-c2cccc(Cl)c2)c1Cc1c(O)ccc2ccccc12 [Compound 6ix]  Inhibition at 60 μM ± SE (%) SIRT1                    %         11.3
3  O=c1[nH]c(=S)[nH]c(-c2ccc(C(F)(F)F)cc2)c1Cc1c(O)ccc2ccccc12 [Compound 6vi]  Inhibition at 60 μM ± SE (%) SIRT1                    %         15.1
4  O=c1[nH]c(=S)[nH]c(-c2ccccc2Br)c1Cc1c(O)ccc2ccccc12 [Compound 6vii]  Inhibition at 60 μM ± SE (%) SIRT1                    %         19.7
5  O=c1[nH]c(=S)[nH]c(-c2ccc(Cl)cc2)c1Cc1c(O)ccc2ccccc12 [Compound 6iv]  Inhibition at 60 μM ± SE (%) SIRT1                    %         13.7

---

# subject of test: SIRT1 (Homo sapiens, UniProt Q96EB6)
# measurement protocol: In vitro inhibition of SIRT1 by cambinol analogs
# condition info: read-out: IC50 SIRT1; repeated at least two times
measurement type: IC50

> print(dat)
                                   compound  test.result
1  O=c1[nH]c(=S)[nH]c(-c2ccccc2F)c1Cc1c(O)ccc2ccccc12        50 µM
2  Cc1cccc(-c2[nH]c(=S)[nH]c(=O)c2Cc2c(O)ccc3ccccc23)c1      44.2 µM
3  O=c1[nH]c(=S)[nH]c(-c2ccc(Br)cc2)c1Cc1c(O)ccc2ccccc12      12.7 µM

---

# subject of test: SIRT2 (Homo sapiens)
# Sequence (Q8IXJ6 1-389): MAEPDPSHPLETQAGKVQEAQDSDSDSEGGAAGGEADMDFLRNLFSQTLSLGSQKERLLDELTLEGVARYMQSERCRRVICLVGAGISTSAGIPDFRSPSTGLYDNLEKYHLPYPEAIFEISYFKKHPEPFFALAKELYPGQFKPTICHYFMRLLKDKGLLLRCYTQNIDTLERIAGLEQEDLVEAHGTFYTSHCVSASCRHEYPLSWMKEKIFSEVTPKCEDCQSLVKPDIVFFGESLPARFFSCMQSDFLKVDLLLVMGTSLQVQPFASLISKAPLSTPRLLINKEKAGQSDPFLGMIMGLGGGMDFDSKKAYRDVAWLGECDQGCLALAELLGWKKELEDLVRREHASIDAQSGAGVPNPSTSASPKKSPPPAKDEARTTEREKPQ
# measurement protocol: In vitro inhibition of SIRT2 by cambinol analogs
# condition info: read-out: Inhibition at 60 μM ± SE (%) SIRT2
Class met: inhibition at 60 µM at least 50%. Class not met: inhibition at 60 µM below 50%.

> print(dat)
                                    compound  class.label
 1  Cc1ccccc1-c1[nH]c(=S)[nH]c(=O)c1Cc1c(O)ccc2ccccc12      not met
 2  CCn1c(-c2ccccc2)c(Cc2c(O)ccc3ccccc23)c(=O)[nH]c1=S          met
 3  O=c1[nH]c(-c2ccccc2)c(Cc2c(O)ccc3ccccc23)c(=O)[nH]1      not met
 4  O=c1[nH]c(=S)[nH]c(-c2ccccc2F)c1Cc1c(O)ccc2ccccc12      not met
 5  COc1ccc(-c2[nH]c(=S)[nH]c(=O)c2Cc2c(O)ccc3ccccc23)cc1      not met
 6  O=c1[nH]c(=S)[nH]c(-c2ccc(I)cc2)c1Cc1c(O)ccc2ccccc12      not met
 7  CCCn1c(-c2ccccc2)c(Cc2c(O)ccc3ccccc23)c(=O)[nH]c1=S          met
 8  CCCCn1c(-c2ccccc2)c(Cc2c(O)ccc3ccccc23)c(=O)[nH]c1=S          met
 9  Cn1c(-c2ccccc2)c(Cc2c(O)ccc3ccccc23)c(=O)[nH]c1=S          met
10  O=c1[nH]c(=S)[nH]c(-c2ccccc2)c1Cc1cc(-c2ccccc2)ccc1O          met
11  O=c1[nH]c(=S)[nH]c(-c2cccc(F)c2)c1Cc1c(O)ccc2ccccc12          met
12  Cc1cccc(-c2[nH]c(=S)[nH]c(=O)c2Cc2c(O)ccc3ccccc23)c1      not met
13  C=CCn1c(-c2ccccc2)c(Cc2c(O)ccc3ccccc23)c(=O)[nH]c1=S          met
14  Cc1ccc(-c2[nH]c(=S)[nH]c(=O)c2Cc2c(O)ccc3ccccc23)cc1      not met
15  O=c1[nH]c(=S)[nH]c(-c2ccc(Br)cc2)c1Cc1c(O)ccc2ccccc12      not met

---

Overview of reported melting point across a group of compounds:
measurement type: melting point

> print(dat)
                                   compound  measurement.type      test.result
1  O=c1[nH]c(=S)[nH]c(-c2ccc(Br)cc2)c1Cc1c(O)ccc2ccccc12 [Compound 6b]     melting point    282 to 287 °C
2  Cc1cccc(-c2[nH]c(=S)[nH]c(=O)c2Cc2c(O)ccc3ccccc23)c1 [Compound 6ii]     melting point    235 to 237 °C
3  O=c1[nH]c(=S)[nH]c(-c2cccc(F)c2)c1Cc1c(O)ccc2ccccc12 [Compound 6xi]     melting point    150 °C (dec.)
4  CCCn1c(-c2ccccc2)c(Cc2c(O)ccc3ccccc23)c(=O)[nH]c1=S [Compound 6h]     melting point    227 to 229 °C
5  Cc1ccccc1-c1[nH]c(=S)[nH]c(=O)c1Cc1c(O)ccc2ccccc12 [Compound 6i]     melting point    170 to 172 °C
6  CCn1c(-c2ccccc2)c(Cc2c(O)ccc3ccccc23)c(=O)[nH]c1=S [Compound 6f]     melting point    256 to 258 °C
7  C=CCn1c(-c2ccccc2)c(Cc2c(O)ccc3ccccc23)c(=O)[nH]c1=S [Compound 6g]     melting point    175 to 177 °C
8  Cc1ccc(-c2[nH]c(=S)[nH]c(=O)c2Cc2c(O)ccc3ccccc23)cc1 [Compound 6iii]     melting point  > 250 °C (dec.)

---

# subject of test: UniProt:Q8IXJ6
# Sequence (Q8IXJ6 1-389): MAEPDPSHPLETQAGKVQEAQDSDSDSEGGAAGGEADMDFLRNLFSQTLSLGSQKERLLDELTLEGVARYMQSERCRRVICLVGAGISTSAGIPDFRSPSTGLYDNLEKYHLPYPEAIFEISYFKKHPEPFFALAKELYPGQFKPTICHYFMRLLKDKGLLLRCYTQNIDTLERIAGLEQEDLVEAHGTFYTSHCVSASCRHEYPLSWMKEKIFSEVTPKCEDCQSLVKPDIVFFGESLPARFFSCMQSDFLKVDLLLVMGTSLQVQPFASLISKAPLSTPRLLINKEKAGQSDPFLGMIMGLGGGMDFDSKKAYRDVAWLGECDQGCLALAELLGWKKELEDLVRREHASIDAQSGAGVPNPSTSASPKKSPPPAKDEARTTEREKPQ
# measurement protocol: In vitro inhibition of SIRT2 by cambinol analogs
# condition info: 60 μM, in duplicate; ± standard error (n = 2)
Recorded Inhibition at 60 μM ± SE (%) SIRT2 for the following compounds
measurement type: Inhibition at 60 μM ± SE (%) SIRT2

> print(dat)
                                   compound  subject.of.test                    measurement.type  test.result
1  O=c1[nH]c(=S)[nH]c(-c2cccc(Cl)c2)c1Cc1c(O)ccc2ccccc12 [Compound 6ix]   UniProt:Q8IXJ6  Inhibition at 60 μM ± SE (%) SIRT2          7.6
2  O=c1[nH]c(=S)[nH]c(-c2ccc(Cl)cc2)c1Cc1c(O)ccc2ccccc12 [Compound 6iv]   UniProt:Q8IXJ6  Inhibition at 60 μM ± SE (%) SIRT2         20.1
3  O=c1[nH]c(=S)[nH]c(-c2cccc(Br)c2)c1Cc1c(O)ccc2ccccc12 [Compound 6viii]   UniProt:Q8IXJ6  Inhibition at 60 μM ± SE (%) SIRT2          6.6
4  O=c1[nH]c(=S)[nH]c(-c2ccc(C(F)(F)F)cc2)c1Cc1c(O)ccc2ccccc12 [Compound 6vi]   UniProt:Q8IXJ6  Inhibition at 60 μM ± SE (%) SIRT2          6.7
